Target: T1, recombinant human TL1A (human, UniProt O95150 71-251)
T1 construct: The ELISA method says only 'recombinant TL1A' coated on plates; homotrimeric cytokine; also called TNFSF15; recombinant TL1A
T1 chain: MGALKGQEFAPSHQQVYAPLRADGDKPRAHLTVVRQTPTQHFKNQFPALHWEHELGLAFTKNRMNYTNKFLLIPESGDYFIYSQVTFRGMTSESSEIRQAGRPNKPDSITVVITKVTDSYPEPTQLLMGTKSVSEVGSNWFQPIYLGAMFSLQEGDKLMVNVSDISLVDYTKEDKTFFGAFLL
Assay: competition ELISA on coated recombinant TL1A; competitor biotinylated TL1A-0002
Parameter threshold = 3 fold. Response is Met when Bioactivity relative to TL1A-0002 meets or exceeds it, else Not met.

Consider the worked cases shown below.
- binder: "TL1A-0289 (antibody, human IgG1, kappa, V domains shown, human IgG1 effector-function-minimized / human kappa) VH: QVQLVQSGAEVKKPGASVKVSCKASGYDFTYYGVSWVRQAPGQGLEWMGWISTYNTGTHYAPSLQGRVTMTTDTSTSTAYMELRSLRSDDTAVYYCARESYYGSGAHRGGMDVWGQGTTVTVSS VL: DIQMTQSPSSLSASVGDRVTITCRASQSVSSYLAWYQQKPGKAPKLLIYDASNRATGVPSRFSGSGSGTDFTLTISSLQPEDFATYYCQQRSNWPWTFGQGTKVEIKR"
  assigned_label: "Not met"
- binder: "TL1A-0307 (antibody, human IgG1, kappa, V domains shown, human IgG1 effector-function-minimized / human kappa) VH: QVQLVQSGAEVKKPGASVKVSCKASGYDFTYYGIGWVRQAPGQGLEWMGWISTYNTVTHYAPSLQGRVTMTTDTSTSTAYMELRSLRSDDTAVYYCARESYYGSGAHRGGMDVWGQGTTVTVSS VL: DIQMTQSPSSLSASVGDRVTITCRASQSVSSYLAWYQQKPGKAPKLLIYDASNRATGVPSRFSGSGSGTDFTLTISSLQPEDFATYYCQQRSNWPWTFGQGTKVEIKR"
  assigned_label: "Met"
- binder: "TL1A-0248 (antibody, V domains shown, IgG1 effector-minimized/kappa) VH: QVQLVQSGAEVKKPGASVKVSCKASGYDFTYYGISWVRQAPGQGLEWMGWISTYNTGTHYAQKLQGRVTMTTDTSTSTAYMELRSLRSDDTAVYYCARESYYGSGAFRGGMDVWGQGTTVTVSS VL: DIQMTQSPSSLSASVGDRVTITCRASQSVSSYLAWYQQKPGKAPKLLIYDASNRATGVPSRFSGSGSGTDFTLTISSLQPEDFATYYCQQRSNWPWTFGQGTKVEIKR"
  assigned_label: "Met"
- binder: "TL1A-0244 (antibody, V domains shown, IgG1 effector-minimized/kappa) VH: QVQLVQSGAEVKKPGASVKVSCKASGYDFTYYGISWVRQAPGQGLEWMGWISTYNDNTHYAQKLQGRVTMTTDTSTSTAYMELRSLRSDDTAVYYCARESYYGSGAFRGGMDVWGQGTTVTVSS VL: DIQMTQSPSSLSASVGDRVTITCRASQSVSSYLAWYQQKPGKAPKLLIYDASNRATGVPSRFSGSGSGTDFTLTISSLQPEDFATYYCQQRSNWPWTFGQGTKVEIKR"
  assigned_label: "Met"

Q: Entry TL1A-0249 (antibody, V domains shown, IgG1 effector-minimized/kappa) VH: QVQLVQSGAEVKKPGASVKVSCKASGYDFTYYGISWVRQAPGQGLEWMGWISTYNTGTHYAQKLQGRVTMTTDTSTSTAYMELRSLRSDDTAVYYCARESYYGSGAHRGGMDVWGQGTTVTVSS VL: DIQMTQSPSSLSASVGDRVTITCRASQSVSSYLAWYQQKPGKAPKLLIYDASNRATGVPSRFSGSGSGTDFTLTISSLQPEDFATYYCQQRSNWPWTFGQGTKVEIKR : is its Bioactivity relative to TL1A-0002 no less than 3 fold?
Result: Met

Q: Entry TL1A-0297 (antibody, V domains shown, IgG1 effector-minimized/kappa) VH: QVQLVQSGAEVKKPGASVKVSCKASGYDFTYYGVSWVRQAPGQGLEWMGWISTYGGNTHYAPSLQGRVTMTTDTSTSTAYMELRSLRSDDTAVYYCARESYYGSGAHRGGMDVWGQGTTVTVSS VL: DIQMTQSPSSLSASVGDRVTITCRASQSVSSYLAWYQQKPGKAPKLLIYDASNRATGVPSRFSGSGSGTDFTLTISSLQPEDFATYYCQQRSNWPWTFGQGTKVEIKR : is its Bioactivity relative to TL1A-0002 no less than 3 fold?
Result: Met

Q: Entry TL1A-0278 (antibody, human IgG1, kappa, V domains shown, human IgG1 effector-function-minimized / human kappa) VH: QVQLVQSGAEVKKPGASVKVSCKASGYDFSYYGISWVRQAPGQGLEWMGWISTYNTVTHYAPSLQGRVTMTTDTSTSTAYMELRSLRSDDTAVYYCARESYYGSGAFRGGMDVWGQGTTVTVSS VL: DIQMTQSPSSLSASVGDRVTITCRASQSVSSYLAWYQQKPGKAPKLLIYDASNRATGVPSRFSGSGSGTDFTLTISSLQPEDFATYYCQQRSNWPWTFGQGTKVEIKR : is its Bioactivity relative to TL1A-0002 no less than 3 fold?
Result: Not met

Q: Entry TL1A-0264 (antibody, human IgG1, kappa, V domains shown, human IgG1 effector-function-minimized / human kappa) VH: QVQLVQSGAEVKKPGASVKVSCKASGYDYTYYGISWVRQAPGQGLEWMGWISTYNTVTHYAPSLQGRVTMTTDTSTSTAYMELRSLRSDDTAVYYCARESYYGSGAFRGGMDVWGQGTTVTVSS VL: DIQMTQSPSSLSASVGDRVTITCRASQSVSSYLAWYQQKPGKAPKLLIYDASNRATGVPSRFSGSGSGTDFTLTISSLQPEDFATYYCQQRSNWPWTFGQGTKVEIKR : is its Bioactivity relative to TL1A-0002 no less than 3 fold?
Result: Met

Q: Entry TL1A-0277 (antibody, human IgG1, kappa, V domains shown, human IgG1 effector-function-minimized / human kappa) VH: QVQLVQSGAEVKKPGASVKVSCKASGYDFSYYGISWVRQAPGQGLEWMGWISTYNTGTHYAQKLQGRVTMTTDTSTSTAYMELRSLRSDDTAVYYCARESYYGSGAHRGGMDVWGQGTTVTVSS VL: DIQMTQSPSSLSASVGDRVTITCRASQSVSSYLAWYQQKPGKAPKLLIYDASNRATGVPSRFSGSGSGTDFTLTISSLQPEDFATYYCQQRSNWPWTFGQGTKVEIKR : is its Bioactivity relative to TL1A-0002 no less than 3 fold?
Result: Not met

Q: Entry TL1A-0279 (antibody, human IgG1, kappa, V domains shown, human IgG1 effector-function-minimized / human kappa) VH: QVQLVQSGAEVKKPGASVKVSCKASGYDFSYYGISWVRQAPGQGLEWMGWISTYNTVTHYAPSLQGRVTMTTDTSTSTAYMELRSLRSDDTAVYYCARESYYGSGAHRGGMDVWGQGTTVTVSS VL: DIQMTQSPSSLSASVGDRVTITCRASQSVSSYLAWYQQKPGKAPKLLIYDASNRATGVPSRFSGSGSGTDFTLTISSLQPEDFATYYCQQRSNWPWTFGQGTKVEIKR : is its Bioactivity relative to TL1A-0002 no less than 3 fold?
Result: Not met
